Values compiled from PubChem BioAssay AID1963836.

Tested on: 857933-349-R-J2-PDC complex spheroid viability;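 note: spheroids exposed to compounds for seven days before readout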
experiment_notes: Anticancer human tumor 857933-349-R-J2-PDC patient-derived colon adenocarcinoma cell line growth inhibition [POLQ]
conditions: second compound 0.1 µM; first compound 0.1 µM; active compounds read low
assay_endpoint: viability, T/C (%)
Entry rule: numbers only, all in %.

IN: Recorded viability, T/C for COc1cccc2c1C(=O)c1c(O)c3c(c(O)c1C2=O)CC(O)(C(=O)CO)CC3OC1CC(N)C(O)C(C)O1 (stereo not given) + Cc1cccc(N(C)C(=O)C2C(O)CCN2c2nc(C)cc(C(F)(F)F)c2C#N)c1 with 857933-349-R-J2-PDC complex spheroid viability, please?
OUT: 79.5

IN: Here is the next compound: C=CCn1c(=O)c2cnc(Nc3ccc(N4CCN(C)CC4)cc3)nc2n1-c1cccc(C(C)(C)O)n1 + Cc1cccc(N(C)C(=O)C2C(O)CCN2c2nc(C)cc(C(F)(F)F)c2C#N)c1
OUT: 84

IN: Here is the next compound: CC1COCCN1c1cc(-c2ccnn2C)c2ccnc(-c3ccn[nH]3)c2n1 (stereo not given) + Nc1ccc(C#CCN(C(=O)Cc2ncc(C(F)(F)F)cc2C(F)(F)F)c2ccc(F)cc2)nn1
OUT: 65.3

IN: Here is the next compound: Nc1ccn(C2OC(CO)C(O)C2(F)F)c(=O)n1 (stereo not given) + Nc1ccc(C#CCN(C(=O)Cc2ncc(C(F)(F)F)cc2C(F)(F)F)c2ccc(F)cc2)nn1
OUT: 54.7

IN: Here is the next compound: CC(C)n1c(=O)n(C)c2cnc3cc(F)c(-c4ccc(OCCCN5CCCCC5)nc4)cc3c21 + Nc1ccc(C#CCN(C(=O)Cc2ncc(C(F)(F)F)cc2C(F)(F)F)c2ccc(F)cc2)nn1
OUT: 109
